Reference source: patent US5462952A

- System: Cyclooxygenase
- ASSAY COMMENT: ARBC whole cell cyclooxygenase assay (PGF2α formation in RBL-1 cells, A23187-stimulated)
- Assay type: cell-based, rat
- EXPERIMENTAL CONTEXT: Table 2, @ 10 μM
Label rule, in plain words: ARBC, % inhibition at given concentration of 50% and up is met, under 50% is not met.

Would you please look over these solved cases?
# LINE NOTATION, ASSIGNED LABEL
data = [
    ("CS(=O)(=O)c1nnc(-c2ccccc2Nc2cccc(C(F)(F)F)c2)o1", "not met"),
    ("CSc1nnc(-c2ccccc2Nc2cccc(C(F)(F)F)c2)o1", "not met"),
    ("CSc1nnc(-c2ccccc2Nc2c(Cl)ccc(C)c2Cl)o1", "met"),
    ("CSc1nnc(-c2ccccc2Nc2cccc(C(F)(F)F)c2)s1", "not met"),
]

Task: Tell me whether ARBC, % inhibition at given concentration is at least 50% here: CSc1nnc(-c2ccccc2Nc2c(Cl)ccc(C)c2Cl)s1
Result: met

---

- SYSTEM: UniProtKB P12527
- Sequence (P12527 whole entry): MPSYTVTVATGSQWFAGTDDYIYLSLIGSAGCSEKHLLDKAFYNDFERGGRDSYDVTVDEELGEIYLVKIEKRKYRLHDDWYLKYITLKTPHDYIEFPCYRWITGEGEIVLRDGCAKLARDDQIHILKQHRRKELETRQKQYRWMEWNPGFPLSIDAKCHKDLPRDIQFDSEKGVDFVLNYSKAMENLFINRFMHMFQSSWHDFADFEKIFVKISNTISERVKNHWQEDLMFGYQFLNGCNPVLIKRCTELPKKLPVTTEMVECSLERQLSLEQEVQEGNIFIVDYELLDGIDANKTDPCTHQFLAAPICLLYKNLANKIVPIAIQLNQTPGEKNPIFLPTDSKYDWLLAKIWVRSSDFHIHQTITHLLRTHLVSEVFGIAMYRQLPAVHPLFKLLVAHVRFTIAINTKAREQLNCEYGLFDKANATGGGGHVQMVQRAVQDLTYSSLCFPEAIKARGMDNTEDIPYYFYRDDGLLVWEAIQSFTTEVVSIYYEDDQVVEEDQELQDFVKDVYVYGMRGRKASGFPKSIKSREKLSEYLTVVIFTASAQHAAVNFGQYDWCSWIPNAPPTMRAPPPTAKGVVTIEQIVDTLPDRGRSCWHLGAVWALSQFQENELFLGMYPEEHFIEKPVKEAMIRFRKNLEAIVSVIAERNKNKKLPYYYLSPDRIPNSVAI
- ASSAY COMMENT: ARBL whole cell 5-lipoxygenase assay (LTB4 formation in RBL-1 cells, A23187-stimulated)
- EXPERIMENTAL CONTEXT: Table 2
METRIC: IC50 (nM)
Provide only the numeric value, understood in nM.

# COMPOUND, EXPERIMENTAL VALUE
rows = [
    ("Cc1ccc(Cl)c(Nc2ccccc2-c2nnc([S+](C)[O-])o2)c1Cl (stereo not shown) [Example 21]", 910),
    ("Nc1nnc(-c2ccccc2Nc2cccc(C(F)(F)F)c2)o1 [Example 16]", 680),
    ("Cc1ccc(Cl)c(Nc2ccccc2-c2n[nH]c(=S)o2)c1Cl [Example 2]", 740),
]

From here, focus on the item given below.
Task: IC50 lookup needed for Nc1nnc(-c2ccccc2Nc2cccc(C(F)(F)F)c2)s1 [Example 10] , thanks.
Result: 690
